- Target under test: Kappa-type opioid receptor (Homo sapiens); further: assay procedure not described here
- Sequence (P41145 whole entry): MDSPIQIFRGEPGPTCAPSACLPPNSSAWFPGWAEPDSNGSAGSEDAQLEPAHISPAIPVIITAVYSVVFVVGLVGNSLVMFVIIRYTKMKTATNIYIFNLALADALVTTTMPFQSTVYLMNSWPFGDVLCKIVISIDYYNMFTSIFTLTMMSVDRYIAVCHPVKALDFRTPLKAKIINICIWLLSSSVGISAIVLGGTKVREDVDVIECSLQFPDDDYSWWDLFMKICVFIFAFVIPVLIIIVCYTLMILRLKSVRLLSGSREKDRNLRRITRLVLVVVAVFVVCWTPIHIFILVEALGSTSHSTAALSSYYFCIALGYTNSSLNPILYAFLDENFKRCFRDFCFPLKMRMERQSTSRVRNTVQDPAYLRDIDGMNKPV
Readout label: AC50

As a guide, the following entries are already answered.
Molecule: CNC(=O)c1cc(Oc2ccc(NC(=O)Nc3ccc(Cl)c(C(F)(F)F)c3)cc2)ccn1 [SORAFENIB]
AC50: 23 µM
//
Molecule: C=C1C[C@@H]2[C@H](CC[C@]3(C)C(=O)CC[C@@H]23)[C@@]2(C)C=CC(=O)C=C12 [EXEMESTANE]
AC50: 2.41 µM
//
Molecule: Cc1nc2ccc(CN(C)c3ccc(C(=O)N[C@@H](CCC(=O)O)C(=O)O)s3)cc2c(=O)[nH]1 [RALTITREXED]
AC50: > 30 µM
//
Molecule: CN1CCN(C(=O)OC2c3nccnc3C(=O)N2c2ccc(Cl)cn2)CC1 (centres undefined) [ZOPICLONE]
AC50: > 10 µM
//
Molecule: NC(=O)c1ncn([C@@H]2O[C@H](CO)[C@@H](O)[C@H]2O)c1O [MIZORIBINE]
AC50: > 30 µM

Record for [H]/N=C(/N)c1ccc(NCc2nc3cc(C(=O)N(CCC(=O)O)c4ccccn4)ccc3n2C)cc1 [DABIGATRAN] under target or system Kappa-type opioid receptor (Homo sapiens): AC50 reported as > 30 µM

Record for COC(=O)C1=C(C)NC(C)=C(C(=O)OC(C)C)C1c1cccc2nonc12 (centres undefined) [ISRADIPINE] under target or system Kappa-type opioid receptor (Homo sapiens): AC50 reported as 10.7 µM

Record for NC(=O)c1cnccn1 [PYRAZINAMIDE] under target or system Kappa-type opioid receptor (Homo sapiens): AC50 reported as > 30 µM

Record for CN1C(=O)COc2c(C(=O)NC3CN4CCC3CC4)cc(Cl)cc21 (centres undefined) [AZASETRON] under target or system Kappa-type opioid receptor (Homo sapiens): AC50 reported as > 30 µM

Record for C#C[C@]1(O)CC[C@H]2[C@@H]3CCC4=CCCC[C@@H]4[C@H]3CC[C@@]21C [LYNESTRENOL] under target or system Kappa-type opioid receptor (Homo sapiens): AC50 reported as 1.5 µM

Record for CCCS(=O)(=O)Nc1ccc(F)c(C(=O)c2c[nH]c3ncc(-c4ccc(Cl)cc4)cc23)c1F [VEMURAFENIB] under target or system Kappa-type opioid receptor (Homo sapiens): AC50 reported as > 30 µM

Record for CC(C)(Oc1ccc(C2CC2(Cl)Cl)cc1)C(=O)O (centres undefined) [CIPROFIBRATE] under target or system Kappa-type opioid receptor (Homo sapiens): AC50 reported as > 30 µM

Record for CC1=CC(=O)c2ccccc2C1=O [MENADIONE] under target or system Kappa-type opioid receptor (Homo sapiens): AC50 reported as > 10 µM

Record for NC(=O)C[S+]([O-])C(c1ccccc1)c1ccccc1 (centres undefined) [MODAFINIL] under target or system Kappa-type opioid receptor (Homo sapiens): AC50 reported as > 10 µM

Record for NS(=O)(=O)c1cc2c(cc1Cl)NCNS2(=O)=O [HYDROCHLOROTHIAZIDE] under target or system Kappa-type opioid receptor (Homo sapiens): AC50 reported as > 10 µM

Record for CN(C/C=C/c1ccccc1)Cc1cccc2ccccc12 [NAFTIFINE] under target or system Kappa-type opioid receptor (Homo sapiens): AC50 reported as 10.6 µM

Record for Cc1c(C(=O)Nc2ccc(N3C[C@@H](C)O[C@@H](C)C3)nc2)cccc1-c1ccc(OC(F)(F)F)cc1 [SONIDEGIB] under target or system Kappa-type opioid receptor (Homo sapiens): AC50 reported as > 10 µM
